- Protocol Details: Kinematic viscosity of surfactant base formulation with added agent, calibrated Cannon viscometers at 40° C.
- Assay type: physicochemical
- Experimental Parameters: lowest over 2-8% agent, Table 2
- Procedure: Referring to Tables 1 and 2, the base formulations were made by mixing 1.6% perfume, 24% sodium undecyl sulfate (CAS#1072-24-8) active, 6% lauramidopropyl betaine (CAS#4292-10-8) active and 60.4% deionized water which leaves 8% unfilled for the addition of a viscosity reducing agent (the balance being filled in by distilled water). […] Viscosity values were calculated based on the equation: […]
Measured Kinematic viscosity at 40 C. [cSt] Lowest viscosity achieved, listed per entry.
Measurement Label: Kinematic viscosity at 40 C. [cSt] Lowest viscosity achieved

Molecule	Measured Value
CC(=O)CCc1ccc(O)cc1 [Raspberry Ketone]	33 cSt
C=C(C)[C@H]1CC=C(C)CC1 [Dipentene]	35 cSt
CCCCCC(=O)OCC(C)C [Isobutyl Hexanoate]	109 cSt
C=CC(C)(CCC=C(C)C)OC(=O)C(C)C (centres unmarked) [Linalyl Iso Butyrate]	38 cSt
CC1=CC=C(C(C)C)CC1 [alpha-Terpinene]	42 cSt
CC(CC=O)CCCC(C)(C)O (centres unmarked) [Hydroxycitronellal]	34 cSt
CCCCCCCCCCCCCCCC [Hexadecane]	18 cSt
CCCCCC1(C)CCC(C)(C)C1=O (centres unmarked) [Veloutone]	47 cSt
CCCCCCCCCCCCCC(=O)OC(C)C [Iso Propyl Myristate]	30 cSt
CCC(=O)OC1CC2CC1C1CC=CC21 (centres unmarked) [Cyclaprop]	404 cSt
CC1=CCC(C(C)C)=CC1 [gamma-Terpinene]	32 cSt

The measurements presented in this section are drawn from patent US20160310369A1.
